These data points were gathered from patent US20230134571A1.

binders and their reported IC80 (µg/ml) with constrains
biological target: HIV Env of isolate BJOX025000.01.1 (clade AE) (HIV); assay: cell-based or functional assay

| BINDER | IC80 (µg/ml) with constrains [µg/mL] |
| --- | --- |
| ePGDM9 (antibody, V domains shown) VH: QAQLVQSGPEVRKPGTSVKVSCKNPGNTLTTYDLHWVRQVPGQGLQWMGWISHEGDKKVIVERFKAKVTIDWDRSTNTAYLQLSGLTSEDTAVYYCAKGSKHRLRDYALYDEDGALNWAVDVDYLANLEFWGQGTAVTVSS VL: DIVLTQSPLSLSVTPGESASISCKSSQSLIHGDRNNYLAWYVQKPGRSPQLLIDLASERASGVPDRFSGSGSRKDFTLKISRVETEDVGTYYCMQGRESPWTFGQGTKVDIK | 0.072 |
| ePGDM13 (antibody, V domains shown) VH: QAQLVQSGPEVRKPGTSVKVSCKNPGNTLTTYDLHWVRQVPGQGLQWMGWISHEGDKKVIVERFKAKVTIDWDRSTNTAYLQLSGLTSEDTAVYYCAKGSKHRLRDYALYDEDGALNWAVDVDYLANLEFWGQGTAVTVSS VL: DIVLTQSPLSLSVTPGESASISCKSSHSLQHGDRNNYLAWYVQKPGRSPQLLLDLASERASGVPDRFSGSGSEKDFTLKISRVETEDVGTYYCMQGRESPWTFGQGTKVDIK | 0.071 |
| PGDM1400 (antibody, V domains shown) VH: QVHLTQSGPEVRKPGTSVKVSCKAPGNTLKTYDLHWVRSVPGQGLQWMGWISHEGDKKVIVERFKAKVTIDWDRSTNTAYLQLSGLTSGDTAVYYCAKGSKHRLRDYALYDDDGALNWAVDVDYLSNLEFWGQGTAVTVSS VL: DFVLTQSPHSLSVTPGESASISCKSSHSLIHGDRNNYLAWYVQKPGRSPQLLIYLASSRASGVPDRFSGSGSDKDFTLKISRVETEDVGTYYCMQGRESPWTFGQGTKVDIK | 0.22 |
